Please consider the recorded Ki for human D3 dopamine receptor (Homo sapiens (Human), UniProt P35462) in what follows.
Give the value, in units of nM, as a plain number.

COc1cc(C(=O)N[C@H]2CC[C@H](CCN3CCC(c4noc5cc(F)ccc45)CC3)CC2)ccn1 = 3.74

Exam item: Return reported Ki for target or system human D3 dopamine receptor (Homo sapiens (Human), UniProt P35462), item CO[C@]1(C)CC[C@H](CC(=O)N[C@H]2CC[C@H](CCN3CCC(c4noc5cc(Cl)ccc45)CC3)CC2)CC1 [Example 42B] .
Marked response: 4

Exam item: Enter measured Ki, system human D3 dopamine receptor (Homo sapiens (Human), UniProt P35462), for the compound shown: CC1CN(c2ccc(C(=O)N[C@H]3CC[C@H](CCN4CCC(c5noc6cc(F)ccc56)CC4)CC3)cc2)CC(C)O1 (stereo partly drawn)
Marked response: 137

Exam item: Provide the reported Ki (system: human D3 dopamine receptor (Homo sapiens (Human), UniProt P35462)) for `O=C(C[C@@H]1CC[C@@H](O)C1)N[C@H]1CC[C@H](CCN2CCC(c3noc4cc(F)c(F)cc34)CC2)CC1`
Sequence (P35462 whole entry): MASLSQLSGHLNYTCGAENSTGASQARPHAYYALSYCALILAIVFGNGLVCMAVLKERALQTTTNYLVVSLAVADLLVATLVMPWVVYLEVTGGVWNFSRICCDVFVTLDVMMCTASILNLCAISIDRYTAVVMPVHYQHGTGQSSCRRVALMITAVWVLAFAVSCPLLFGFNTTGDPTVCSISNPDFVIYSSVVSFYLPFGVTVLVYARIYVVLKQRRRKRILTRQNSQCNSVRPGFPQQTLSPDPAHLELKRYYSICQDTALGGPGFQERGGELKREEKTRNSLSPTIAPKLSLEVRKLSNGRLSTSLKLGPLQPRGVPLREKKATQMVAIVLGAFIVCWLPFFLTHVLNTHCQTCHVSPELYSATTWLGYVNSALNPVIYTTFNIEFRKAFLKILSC
Marked response: 19.8

Exam item: Find Ki for `CC(C)(C)Oc1ccc(C(=O)N[C@H]2CC[C@H](CCN3CCC(c4noc5cc(F)ccc45)CC3)CC2)cc1` on human D3 dopamine receptor (Homo sapiens (Human), UniProt P35462) and write it down.
Marked response: 3.42

###

# Test system: human 5-HT2A serotonin receptor (Homo sapiens (Human), UniProt P28223)
Mark yes (1) only for Ki values smaller than 10 nM; exact matches and larger values are no (0).

Answered cases to consult:
O=C(N[C@H]1CC[C@H](CCN2CCC(c3noc4cc(F)ccc34)CC2)CC1)c1ccc(N2CCOCC2)nn1 = yes (1)
O=C(CC1CCCO1)N[C@H]1CC[C@H](CCN2CCC(c3noc4cc(Cl)ccc34)CC2)CC1 (stereo partly drawn) = no (0)
O=C(N[C@H]1CC[C@H](CCN2CCC(c3noc4ccc(F)cc34)CC2)CC1)c1ccc(N2CCOCC2)cc1 = no (0)

Exam item: Find out if reported Ki for `O=C(N[C@H]1CC[C@H](CCN2CCC(c3noc4cc(F)ccc34)CC2)CC1)c1ccnc(N2CCOCC2)c1` is less than 10 nM
Marked response: yes (1)

Exam item: Please let me know if O=C(CC1CCCO1)N[C@H]1CC[C@H](CCN2CCC(c3noc4cc(Cl)c(F)cc34)CC2)CC1 (stereo partly drawn) shows Ki below 10 nM.
Marked response: no (0)

Exam item: Decide: Ki of `CS(=O)(=O)N[C@H]1CC[C@H](CCN2CCC(c3noc4ccc(F)cc34)CC2)CC1` strictly below 10 nM?
Marked response: no (0)

Exam item: Problem: For the compound `O=C(CO)N[C@H]1CC[C@H](CCN2CCC(c3noc4cc(F)c(F)cc34)CC2)CC1` , is Ki under 10 nM?
Marked response: no (0)

Exam item: Hello, is Ki of the following compound strictly smaller than 10 nM? `COc1ccc(C(=O)N[C@H]2CC[C@H](CCN3CCC(c4noc5cc(F)ccc45)CC3)CC2)cc1`
Marked response: yes (1)

Exam item: Given `N#CCC(=O)N[C@H]1CC[C@H](CCN2CCC(c3noc4cc(Cl)ccc34)CC2)CC1` , is recorded Ki strictly lower than 10 nM?
Marked response: no (0)

Exam item: Does the reported Ki of `COC(CC(=O)N[C@H]1CC[C@H](CCN2CCC(c3noc4cc(Cl)ccc34)CC2)CC1)OC` stay below 10 nM?
Marked response: no (0)

Exam item: Answer whether the compound `N#CCCC(=O)N[C@H]1CC[C@H](CCN2CCC(c3noc4cc(Cl)ccc34)CC2)CC1` has Ki strictly less than 10 nM
Marked response: no (0)

Exam item: Problem: For the compound `COCCC(=O)N[C@H]1CC[C@H](CCN2CCC(c3noc4cc(F)ccc34)CC2)CC1` , is Ki under 10 nM?
Marked response: yes (1)

Exam item: Is the reported Ki for `CO[C@H]1CC[C@H](CC(=O)N[C@H]2CC[C@H](CCN3CCC(c4noc5cc(F)c(F)cc45)CC3)CC2)CC1` strictly below 10 nM?
Marked response: yes (1)

Exam item: Is it true that Ki reported for `O=C(C[C@H]1CCCO1)N[C@H]1CC[C@H](CCN2CCC(c3noc4cc(Cl)ccc34)CC2)CC1` is less than 10 nM?
Marked response: yes (1)

Exam item: Below 10 nM on Ki? Entry `O=C(N[C@H]1CC[C@H](CCN2CCC(c3noc4cc(F)ccc34)CC2)CC1)c1ccc(-n2cccc2)cc1`
Marked response: yes (1)
